# study.system: Autotaxin (Homo sapiens, UniProt Q13822)
endpoint.name: IC50 (nM)
Give just the numeric value; nM need not be written.

Q) Give IC50 only, for O=C(c1ccc2cc(Br)ccc2c1)N1C[C@@H]2[C@H](C1)[C@H]1CN(C(=O)c3ccc4[nH]nnc4c3)C[C@@H]21 [US10849881, Example 1.004] , using Autotaxin (Homo sapiens, UniProt Q13822) data.
A) 17

FYI, the data here is from BindingDB's records for patent US10849881.
